Target: human recombinant 5-HT2C receptor (Homo sapiens (Human))
Sequence (P28335 33-458): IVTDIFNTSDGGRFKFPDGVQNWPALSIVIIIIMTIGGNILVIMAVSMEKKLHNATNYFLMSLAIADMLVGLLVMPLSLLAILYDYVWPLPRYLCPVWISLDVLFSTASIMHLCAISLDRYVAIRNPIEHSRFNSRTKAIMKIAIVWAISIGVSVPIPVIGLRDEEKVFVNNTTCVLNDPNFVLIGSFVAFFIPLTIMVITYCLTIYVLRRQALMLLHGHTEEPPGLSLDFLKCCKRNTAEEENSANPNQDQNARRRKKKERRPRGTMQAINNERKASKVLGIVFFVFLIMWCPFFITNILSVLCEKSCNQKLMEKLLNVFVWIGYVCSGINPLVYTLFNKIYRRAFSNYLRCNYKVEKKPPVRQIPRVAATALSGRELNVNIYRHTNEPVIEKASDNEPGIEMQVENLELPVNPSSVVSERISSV
Assay: 5-HT2C receptor binding inhibition test ([3H]-Mesulergine)
Conditions: Jump-In HEK cell membrane, 37° C. 2 hours, read-out: h-5-HT2C Ki
measurement-name: Ki

molecule=CC(C)COc1ccc(CN(Cc2ccc(F)cn2)C2=NC(=O)C3(CCN(C)CC3)N2)cc1 tested_system="human recombinant 5-HT2C receptor (Homo sapiens (Human))" value_observed="10 to 100 nM"
molecule=Cc1cc(CN(Cc2ccc(OCC(C)C)cc2)C2=NOC3(CCN(C)CC3)N2)no1 tested_system="human recombinant 5-HT2C receptor (Homo sapiens (Human))" value_observed="100 to 500 nM"
molecule=CC(C)COc1ccc(CC2=NOC3(CCN(C)CC3)N2Cc2ccc(F)cc2O)cc1 tested_system="human recombinant 5-HT2C receptor (Homo sapiens (Human))" value_observed="10 to 100 nM"
molecule=Cc1ccc(CN(Cc2ccc(OCC(C)C)cc2)C2=NC(=O)C3(CCN(C)CC3)N2)nc1 tested_system="human recombinant 5-HT2C receptor (Homo sapiens (Human))" value_observed="10 to 100 nM"
molecule=CN1CCC2(CC1)NC(N(Cc1ccc(OCC(F)(F)F)c(F)c1)Cc1coc(C3CC3)n1)=NO2 tested_system="human recombinant 5-HT2C receptor (Homo sapiens (Human))" value_observed="< 10 nM"
molecule=Cc1nc(CN(Cc2ccc(OCC(F)F)cc2)C2=NOC3(CCN(C)CC3)N2)co1 tested_system="human recombinant 5-HT2C receptor (Homo sapiens (Human))" value_observed="< 10 nM"
molecule="Cn1ccc(CN2C(Cc3ccc(OC4CC4)cc3)=NOC23CCNCC32CC2)n1 (racemic)" tested_system="human recombinant 5-HT2C receptor (Homo sapiens (Human))" value_observed="< 10 nM"
molecule=Cc1cc(CN(Cc2ccc(OCC(C)C)cc2)C2=NOC3(CCN(C)CC3)N2)co1 tested_system="human recombinant 5-HT2C receptor (Homo sapiens (Human))" value_observed="< 10 nM"

----------
Biological target: human recombinant 5-HT2A receptor (Homo sapiens (Human), UniProt P28223)
Sequence (P28223 whole entry): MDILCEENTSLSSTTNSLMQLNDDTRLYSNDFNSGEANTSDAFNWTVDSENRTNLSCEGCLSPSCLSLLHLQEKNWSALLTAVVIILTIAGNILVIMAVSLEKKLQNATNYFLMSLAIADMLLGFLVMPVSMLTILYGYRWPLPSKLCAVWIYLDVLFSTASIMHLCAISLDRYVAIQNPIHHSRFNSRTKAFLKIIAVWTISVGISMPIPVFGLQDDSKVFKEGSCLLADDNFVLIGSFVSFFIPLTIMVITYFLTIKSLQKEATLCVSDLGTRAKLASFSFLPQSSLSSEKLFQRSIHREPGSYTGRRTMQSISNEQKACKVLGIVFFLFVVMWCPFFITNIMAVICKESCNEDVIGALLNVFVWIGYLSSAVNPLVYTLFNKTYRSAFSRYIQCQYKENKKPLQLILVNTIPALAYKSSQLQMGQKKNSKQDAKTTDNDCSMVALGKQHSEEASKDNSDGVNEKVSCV
Assay: 5-HT2A receptor binding inhibition test ([3H]-Ketanserin)
Details: Jump-In HEK cell membrane, 25° C. 1.5 hours, read-out: h-5-HT2A Ki
Method: Test Example 1: 5-HT2A Receptor Binding Inhibition Test (Each Experimental Condition) Cell membrane: 15 μg of Jump-In HEK cell membrane (expressing human recombinant 5-HT2A receptor) per well […] Radioactive ligand: [^3H]-Ketanserin with a final concentration of around Kd value calculated by the following method […] The Kd value is calculated when the lot of cell membrane is changed. […] The Saturation curve is drawn from the measured value, and the Kd value is calculated from the slope of the Scatchard Plot. […]
measurement-name: Ki

molecule="Cc1cc(CN(Cc2ccc(OCC(C)C)cc2)C2=NOC3(CCN(C)CC3)N2)no1 [Compound I-075]" measurement_name=Ki value_observed="< 10 nM"
molecule="CC(C)COc1ccc(CN(Cc2ccc(F)cc2)C2=NC(=O)C3(CCNCC3)N2)cc1 [Compound I-022]" measurement_name=Ki value_observed="< 10 nM"
molecule="CCCOc1ccc(CC2=NOC3(CCN(C)CC34CC4)N2Cc2cc(C)n(C)n2)cc1 (racemic) [Compound I-029]" measurement_name=Ki value_observed="< 10 nM"
molecule="Cc1nc(CN(Cc2cc3ccc(Br)cc3s2)C2=NOC3(CCN(C)CC3)N2)co1 [Compound I-102]" measurement_name=Ki value_observed="< 10 nM"
molecule="CC(C)COc1ccc(CN(Cc2ccc(F)cn2)C2=NC(=O)C3(CCN(C)CC34CC4)N2)cc1 (racemic) [Compound I-042]" measurement_name=Ki value_observed="10 to 100 nM"
molecule="Cc1nc(CN(Cc2ccc(OCC(C)C)cc2)C2=NOC3(CCN(C)CC3)N2)no1 [Compound I-018]" measurement_name=Ki value_observed="10 to 100 nM"
molecule="CC(C)COc1ccc(CN(Cc2ccn(C)n2)C2=NC(=O)C3(CCN(C)CC34CC4)N2)cc1 (racemic) [Compound I-043]" measurement_name=Ki value_observed="10 to 100 nM"
molecule="CC(C)COc1ccc(CN(Cc2cnn(C)c2)C2=NOC3(CCN(C)CC3)N2)cc1 [Compound I-046]" measurement_name=Ki value_observed="10 to 100 nM"

----------
Molecular target: human recombinant 5-HT2A receptor (Homo sapiens (Human))
Assay: 5-HT2A receptor binding inhibition test ([3H]-Ketanserin)
Details: Jump-In HEK cell membrane, 25° C. 1.5 hours, read-out: h-5-HT2A Ki
pKi: −log10 of the molar value.
measurement-name: pKi

molecule="CN1CCC2(CC1)NC(N(Cc1ccc(OCC(F)(F)F)cc1)Cc1coc(C3CC3)n1)=NO2 [Compound I-086]" value_observed="> 8.00"
molecule="CC(C)COc1ccc(CN(Cc2ccc(F)cc2)C2=NC(=O)C3(CCN(C)CC3)N2)cc1 [Compound I-021]" value_observed="> 8.00"
molecule="Cc1nc(CN(Cc2ccc(OCC3CC3)cc2)C2=NOC3(CCN(C)CC3)N2)co1 [Compound I-079]" value_observed="> 8.00"
molecule="Cc1cccc(CN(Cc2ccc(OCC(C)C)cc2)C2=NOC3(CCN(C)CC3)N2)n1 [Compound I-013]" value_observed="7.00 to 8.00"
molecule="Cc1nc(CN(Cc2ccc(OCC(F)F)cc2)C2=NOC3(CCN(C)CC3)N2)co1 [Compound I-066]" value_observed="> 8.00"
molecule="Cc1nc(CN(Cc2ccc(OCC(C)C)cc2)C2=NC(=O)C3(CCN(C)CC3)N2)co1 [Compound I-039]" value_observed="7.00 to 8.00"
molecule="CC(C)COc1ccc(CN(Cc2cnn(C)n2)C2=NOC3(CCN(C)CC3)N2)cc1 [Compound I-072]" value_observed="> 8.00"
molecule="CCCCOc1ccc(CN(Cc2coc(C)n2)C2=NOC3(CCNCC3)N2)cc1 [Compound I-134]" value_observed="> 8.00"
molecule="COc1ccc(CN(Cc2coc(C)n2)C2=NOC3(CCN(C)CC3)N2)nc1 [Compound I-121]" value_observed="7.00 to 8.00"
molecule="Cc1cc(CN(Cc2ccc(OCC(C)C)cc2)C2=NOC3(CCN(C)CC3)N2)co1 [Compound I-070]" value_observed="> 8.00"
molecule="CC(C)COc1ccc(CN(Cc2ccc(F)cn2)C2=NOC3(CCN(C)CC3)N2)cc1 [Compound I-007]" value_observed="> 8.00"
molecule="Cc1cnc(CN(Cc2ccc(OCC(C)C)cc2)C2=NC(=O)C3(CCN(C)CC3)N2)nc1 [Compound I-061]" value_observed="7.00 to 8.00"
molecule="CC(C)COc1ccc(CN(Cc2coc(-c3ccccc3)n2)C2=NOC3(CCN(C)CC3)N2)cc1 [Compound I-118]" value_observed="6.30 to 7.00"
molecule="Cc1nc(CN(Cc2ccc(OCC(C)C)cc2F)C2=NOC3(CCNCC3)N2)co1 [Compound I-131]" value_observed="> 8.00"
molecule="Cc1cc(CN(Cc2ccc(OCC(C)C)cc2)C2=NOC3(CCN(C)CC3)N2)on1 [Compound I-076]" value_observed="7.00 to 8.00"
molecule="CN1CCC2(CC1)NC(N(Cc1coc(C3CC3)n1)Cc1ccc(OCC(F)(F)F)cc1F)=NO2 [Compound I-108]" value_observed="> 8.00"

----------
Target: human recombinant 5-HT2A receptor (Homo sapiens (Human), UniProt P28223)
Assay: 5-HT2A receptor binding inhibition test ([3H]-Ketanserin)
Details: Jump-In HEK cell membrane, 25° C. 1.5 hours, read-out: human serotonin 5-HT2A receptor binding activity Ki
pKi: −log10 of the molar value.
measurement-name: pKi

molecule="CC(C)COc1ccc(CN(Cc2coc(CF)n2)C2=NOC3(CCN(C)CC3)N2)cc1 [Compound I-067]" tested_system="human recombinant 5-HT2A receptor (Homo sapiens (Human), UniProt P28223)" value_observed=8.86
molecule="Cc1nc(CN(Cc2nc3cc(Cl)ccc3o2)C2=NOC3(CCN(C)CC3)N2)co1 [Compound I-089]" tested_system="human recombinant 5-HT2A receptor (Homo sapiens (Human), UniProt P28223)" value_observed=8.83
molecule="CC(C)COc1ccc(CC2=NOC3(CCN(C)CC3)N2Cc2ccc(F)cc2)cc1 [Compound I-001]" tested_system="human recombinant 5-HT2A receptor (Homo sapiens (Human), UniProt P28223)" value_observed=8.32
molecule="CCCc1ccc(CN(Cc2coc(C)n2)C2=NOC3(CCN(C)CC3)N2)cc1 [Compound I-087]" tested_system="human recombinant 5-HT2A receptor (Homo sapiens (Human), UniProt P28223)" value_observed=8.95
molecule="CC(C)COc1ccc(CN(Cc2coc(C3CC3)n2)C2=NOC3(CCN(C)CC3)N2)cc1 [Compound I-049]" tested_system="human recombinant 5-HT2A receptor (Homo sapiens (Human), UniProt P28223)" value_observed=9.02
molecule="Cc1nc(CN(Cc2ccc(CCC(F)(F)F)cc2)C2=NOC3(CCN(C)CC3)N2)co1 [Compound I-125]" tested_system="human recombinant 5-HT2A receptor (Homo sapiens (Human), UniProt P28223)" value_observed=8.90
molecule="CCCCOc1ccc(CN(Cc2coc(CF)n2)C2=NOC3(CCN(C)CC3)N2)cc1 [Compound I-105]" tested_system="human recombinant 5-HT2A receptor (Homo sapiens (Human), UniProt P28223)" value_observed=9.01
molecule="CC(C)COc1ccc(CN(Cc2ccn(C)n2)C2=NC(=O)C3(CCN(C)CC3)N2)cc1 [Compound I-033]" tested_system="human recombinant 5-HT2A receptor (Homo sapiens (Human), UniProt P28223)" value_observed=8.00
molecule="CCCCOc1ccc(CN(Cc2cnn(C)n2)C2=NOC3(CCN(C)CC3)N2)cc1 [Compound I-113]" tested_system="human recombinant 5-HT2A receptor (Homo sapiens (Human), UniProt P28223)" value_observed=8.92
molecule="Cc1nc(CN(Cc2ccc(OCC(C)C)cc2)C2=NC(=O)C3(CCN(C)CC3)N2)cs1 [Compound I-057]" tested_system="human recombinant 5-HT2A receptor (Homo sapiens (Human), UniProt P28223)" value_observed=8.28
molecule="CCCCOc1ccc(CN(Cc2coc(C)n2)C2=NOC3(CCN(C)CC3)N2)cc1F [Compound I-115]" tested_system="human recombinant 5-HT2A receptor (Homo sapiens (Human), UniProt P28223)" value_observed=9.15
molecule="Cc1nc(CN(Cc2cc3ccccc3o2)C2=NOC3(CCN(C)CC3)N2)co1 [Compound I-099]" tested_system="human recombinant 5-HT2A receptor (Homo sapiens (Human), UniProt P28223)" value_observed=9.02
molecule="Cc1nc(CN(Cc2ccc(OCC(F)(F)C(F)(F)F)cc2F)C2=NOC3(CCN(C)CC3)N2)co1 [Compound I-104]" tested_system="human recombinant 5-HT2A receptor (Homo sapiens (Human), UniProt P28223)" value_observed=8.81
molecule="CCCCOc1ccc(CN(Cc2coc(C)n2)C2=NOC3(CCN(C)CC3)N2)c(F)c1 [Compound I-114]" tested_system="human recombinant 5-HT2A receptor (Homo sapiens (Human), UniProt P28223)" value_observed=9.13
molecule="Cc1nc(CN(Cc2ccc(OCC(C)C)cc2)C2=NOC3(CCN(C)CC3)N2)co1 [Compound I-011]" tested_system="human recombinant 5-HT2A receptor (Homo sapiens (Human), UniProt P28223)" value_observed=8.91
molecule="Cc1nc(CN(Cc2ccc(OCC(C)C)cc2F)C2=NOC3(CCN(C)CC3)N2)co1 [Compound I-128]" tested_system="human recombinant 5-HT2A receptor (Homo sapiens (Human), UniProt P28223)" value_observed=8.87
